Target: tandem WW domain of FBP21 (Homo sapiens, UniProt O75554)
Construct: multivalent peptide-polymer conjugates and the tandem WW domain of protein FBP21 determined at 8 °C by ITC measurements; made in house; host or cells: E. coli BL21 (DE3)
Sequence (O75554 122-196 limits assumed): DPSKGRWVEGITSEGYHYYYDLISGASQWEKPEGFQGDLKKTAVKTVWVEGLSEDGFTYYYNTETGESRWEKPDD
Experiment: Isothermal titration calorimetry (ITC) of peptide–polymer conjugates with tandem WW domain
Assay type: binding
Details: monovalent ligand, tandem WW-domain of FBP21, as stated in the abstract; read-out: KD
Ends that are not written are not given here.
Measure Name: Kd

**Q:** State the recorded Kd for this entry: GPPPRGPPPR-NH2 [P1]
**A:** > 1000 µM

====

Molecular target: tandem WW domain of FBP21 (Homo sapiens, UniProt O75554)
Construct: multivalent peptide-polymer conjugates and the tandem WW domain of protein FBP21 determined at 8 °C by ITC measurements; made in house; host or cells: E. coli BL21 (DE3)
Assay: Isothermal titration calorimetry (ITC) of peptide–polymer conjugates with tandem WW domain
Assay type: binding
Settings: ITC at 8 °C; ratio of peptide ligand molecules relative to each protein binding site
Measure Name: Binding stoichiometry (peptide ligands per protein receptor)
Numbers only.

Seq Text | Numeric Readout
CGPPPRGPPPR [pHPMA-1, poly(N-(2-hydroxypropyl)methacrylamide) NCL-polymer conjugated with 6 copies of P2 by native chemical ligation] | 2.6
CGPPPRGPPPR [hPG-2, hyperbranched polyglycerol modified with maleimido groups, coupled with 4 copies of P2] | 2.4
CGPPPRGPPPR [pHPMA-2, poly(N-(2-hydroxypropyl)methacrylamide) NCL-polymer conjugated with 9 copies of P2 by native chemical ligation] | 2.8
CGPPPRGPPPR [Dex-3] | 1.3
CGPPPRGPPPR [Dex-1] | 1.8

Record Binding stoichiometry (peptide ligands per protein receptor) for all entries; do not skip any.
1. CGPPPRGPPPR [Dex-2]
2. CGPPPRGPPPR [hPG-1, hyperbranched polyglycerol modified with maleimido groups, coupled with 3 copies of P2]

**A:**
[1.4, 2.3]

The origin of these recorded values is paper PMC4464424.
